Test system: 931267-113-T-J1-PDC KRAS spheroid with HUVEC/MSC, viability
Assay: Anticancer human tumor 931267-113-T-J1-PDC patient-derived colon adenocarcinoma cell line growth inhibition [KRAS2]; active = viability on the fitted dose curve at most 10% of control; inactive = the rest
Measurement Parameters: second compound 1 µM; first compound 0.316 µM
Use one of these outcomes when replying: class 1 = active, class 0 = inactive

Molecule: COc1cc(Nc2ncc3c(n2)-c2ccc(Cl)cc2C(c2c(F)cccc2OC)=NC3)ccc1C(=O)O + CNCc1ccccc1-c1csc(C(C)Nc2nc(C)nc3cc(OC)c(OC)cc23)c1
Class Label: class 0
--
Molecule: CCN1CCN(Cc2ccc(Nc3ncc(F)c(-c4cc(F)c5nc(C)n(C(C)C)c5c4)n3)nc2)CC1 + CNCc1ccccc1-c1csc(C(C)Nc2nc(C)nc3cc(OC)c(OC)cc23)c1
Class Label: class 1
--
Molecule: CC(=O)OC12COC1CC(O)C1(C)C(=O)C(O)C3=C(C)C(OC(=O)C(O)C(NC(=O)OC(C)(C)C)c4ccccc4)CC(O)(C(OC(=O)c4ccccc4)C21)C3(C)C (stereo not given) + C=CC(=O)N1CCN(c2nc(OCC3CCCN3C)nc3c2CCN(c2cccc4cccc(C)c24)C3)CC1CC#N
Class Label: class 0

How did this test come out for CC(=O)OC12COC1CC(O)C1(C)C(=O)C(O)C3=C(C)C(OC(=O)C(O)C(NC(=O)OC(C)(C)C)c4ccccc4)CC(O)(C(OC(=O)c4ccccc4)C21)C3(C)C (stereo not given) + COc1cc2nc(C)nc(NC(C)c3cc(N)cc(C(F)(F)F)c3)c2cc1OC1CCOC1 ?
class 0

Called result for CC1OCC2(CCN(c3cnc(Sc4ccnc(N)c4Cl)c(N)n3)CC2)C1N (stereo not given) + C=CC(=O)N1CCN(c2nc(OCC3CCCN3C)nc3c2CCN(c2cccc4cccc(C)c24)C3)CC1CC#N
class 0

---

Tested on: 931267-113-T-J1-PDC KRAS spheroid with HUVEC/MSC, viability
Assay: Anticancer human tumor 931267-113-T-J1-PDC cell line growth inhibition [KRAS2];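 also: compound exposure lasted 7 days before the readout; 100% = DMSO vehicle control viability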
Measurement Parameters: second compound 3.16 µM; first compound 0.00316 µM; hits give low values
Reported Property: viability, T/C (%)
Numbers only, in %.

The cases that follow already have their viability, T/C on record.
Compound: CC(=O)Nc1cccc(-n2c(=O)n(C3CC3)c(=O)c3c(Nc4ccc(I)cc4F)n(C)c(=O)c(C)c32)c1 + CC1OCC2(CCN(c3cnc(Sc4ccnc(N)c4Cl)c(N)n3)CC2)C1N
Unit: %
viability, T/C: 38.7
//
Compound: CC(=O)Nc1cccc(-n2c(=O)n(C3CC3)c(=O)c3c(Nc4ccc(I)cc4F)n(C)c(=O)c(C)c32)c1 + COc1cc2nc(C)nc(NC(C)c3cc(N)cc(C(F)(F)F)c3)c2cc1OC1CCOC1
Unit: %
viability, T/C: 59.5
//
Compound: CN(C)C/C=C/C(=O)Nc1cc2c(Nc3ccc(F)c(Cl)c3)ncnc2cc1O[C@H]1CCOC1 + C=CC(=O)N1CCN(c2nc(OCC3CCCN3C)nc3c2CCN(c2cccc4cccc(C)c24)C3)CC1CC#N
Unit: %
viability, T/C: 0.24
//
Compound: CN(C)C/C=C/C(=O)Nc1cc2c(Nc3ccc(F)c(Cl)c3)ncnc2cc1O[C@H]1CCOC1 + C=CC(=O)N1CCN(c2nc(=O)n(-c3c(C)ccnc3C(C)C)c3nc(-c4c(O)cccc4F)c(F)cc23)C(C)C1
Unit: %
viability, T/C: 117

State recorded viability, T/C with 931267-113-T-J1-PDC KRAS spheroid with HUVEC/MSC, viability, entry CC(=O)Nc1cccc(-n2c(=O)n(C3CC3)c(=O)c3c(Nc4ccc(I)cc4F)n(C)c(=O)c(C)c32)c1 + C=CC(=O)N1CCN(c2nc(=O)n(-c3c(C)ccnc3C(C)C)c3nc(-c4c(O)cccc4F)c(F)cc23)C(C)C1 , no comment.
54
